Entry source: patent US10280205B2

- TEST_TARGET: HLA-A*02:01 (Homo sapiens, UniProt P04439, D140Y/D185E/D98H/E176V/E277Q/G131W/G231S/I119V/I121R/I166T/I218V/L300P/L318F/N151K/N90K/P208A/P217A/Q86G/Q94H/R138H/R169H/T345S)
- TEST_DESCRIPTION: MHC binding assay: UV-ligand exchange with beta2m ELISA (exchange yield)
- REPORTED_CONDITIONS: binding to HLA-A*02:01, β2m ELISA
READOUT_NAME: Peptide exchange (MHC class I binding score, peptide exchange yield)

75 (GLLEVMVNL; listed as Homo sapiens) [compound 75] = “+++” (≥50 = +++)
476 (ALMERTGYSMV; listed as Homo sapiens) [compound 476] = “+++” (≥50 = +++)
354 (LILEGVDTV; listed as Homo sapiens) [compound 354] = “++” (≥20% = ++)
140 (YMDAPKAAL; listed as Homo sapiens) [compound 140] = “++” (≥20% = ++)

---

- TEST_TARGET: HLA-A*02:01 (Homo sapiens, UniProt P04439, D140Y/D185E/D98H/E176V/E277Q/G131W/G231S/I119V/I121R/I166T/I218V/L300P/L318F/N151K/N90K/P208A/P217A/Q86G/Q94H/R138H/R169H/T345S)
- TEST_DESCRIPTION: MHC binding assay: UV-ligand exchange with beta2m ELISA (exchange yield)
- REPORTED_CONDITIONS: binding to HLA-A*02:01, β2m ELISA
READOUT_NAME: Peptide exchange (MHC class I binding score, peptide exchange yield)

Example cases with answers are listed next.
264 (SLQEQLHSV; listed as Homo sapiens) [compound 264] = “+++” (≥50 = +++)
443 (GLWEIENNPTV; listed as Homo sapiens) [compound 443] = “+++” (≥50 = +++)
365 (YVIDQGETDVYV; listed as Homo sapiens) [compound 365] = “+++” (≥50 = +++)
252 (LLIGTDVSL; listed as Homo sapiens) [compound 252] = “+++” (≥50 = +++)

Here is the next item to consider.
Reported Peptide exchange (MHC class I binding score, peptide exchange yield) for 427 (ALLPLSPYL; listed as Homo sapiens) [compound 427] was “+++” (≥50 = +++)

---

- TEST_TARGET: HLA-A*02:01 (Homo sapiens, UniProt P04439, D140Y/D185E/D98H/E176V/E277Q/G131W/G231S/I119V/I121R/I166T/I218V/L300P/L318F/N151K/N90K/P208A/P217A/Q86G/Q94H/R138H/R169H/T345S)
- TEST_DESCRIPTION: MHC binding assay: UV-ligand exchange with beta2m ELISA (exchange yield)
- REPORTED_CONDITIONS: binding to HLA-A*02:01, β2m ELISA
READOUT_NAME: Peptide exchange (MHC class I binding score, peptide exchange yield)

71 (GILARIASV; listed as Homo sapiens) [compound 71] = “+++” (≥50 = +++)
12 (SLWPDPMEV; listed as Homo sapiens) [compound 12] = “+++” (≥50 = +++)
396 (ALLPDLPAL; listed as Homo sapiens) [compound 396] = “+++” (≥50 = +++)
